Notes on IC50 obtained with Jarid1A (Homo sapiens).
Sequence (P29375 1-1090): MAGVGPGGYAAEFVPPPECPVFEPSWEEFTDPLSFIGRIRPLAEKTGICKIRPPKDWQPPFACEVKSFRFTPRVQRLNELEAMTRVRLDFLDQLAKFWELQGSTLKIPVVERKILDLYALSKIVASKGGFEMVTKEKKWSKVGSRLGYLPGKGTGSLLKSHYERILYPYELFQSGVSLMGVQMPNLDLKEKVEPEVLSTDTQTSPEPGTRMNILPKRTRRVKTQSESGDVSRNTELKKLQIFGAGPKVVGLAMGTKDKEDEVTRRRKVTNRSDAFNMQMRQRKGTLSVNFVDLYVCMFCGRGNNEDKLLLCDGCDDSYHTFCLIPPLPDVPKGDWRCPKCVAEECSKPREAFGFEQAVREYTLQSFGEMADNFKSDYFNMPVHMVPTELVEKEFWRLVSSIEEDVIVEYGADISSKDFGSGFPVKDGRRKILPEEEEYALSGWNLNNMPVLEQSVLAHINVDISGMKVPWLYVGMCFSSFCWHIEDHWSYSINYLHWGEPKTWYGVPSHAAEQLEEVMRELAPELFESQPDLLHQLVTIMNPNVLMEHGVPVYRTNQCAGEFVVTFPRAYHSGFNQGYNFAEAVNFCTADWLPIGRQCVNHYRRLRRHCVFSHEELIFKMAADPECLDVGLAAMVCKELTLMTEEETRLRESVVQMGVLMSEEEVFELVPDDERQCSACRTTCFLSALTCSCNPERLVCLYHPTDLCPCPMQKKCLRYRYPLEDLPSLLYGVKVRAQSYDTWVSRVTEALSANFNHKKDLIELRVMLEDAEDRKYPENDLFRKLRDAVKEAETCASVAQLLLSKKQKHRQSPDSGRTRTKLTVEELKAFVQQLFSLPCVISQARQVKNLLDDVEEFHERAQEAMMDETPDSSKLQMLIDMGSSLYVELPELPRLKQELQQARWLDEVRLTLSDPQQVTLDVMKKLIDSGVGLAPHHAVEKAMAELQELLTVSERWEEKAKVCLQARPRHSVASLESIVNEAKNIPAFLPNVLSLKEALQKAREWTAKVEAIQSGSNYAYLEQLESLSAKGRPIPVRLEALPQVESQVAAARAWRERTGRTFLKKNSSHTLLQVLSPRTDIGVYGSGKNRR

For orientation, consider the following solved cases.
# compound, IC50
measured = [
    ("Oc1nc(OC2CCOc3ccccc32)nc2cnccc12 (stereo not shown) [Example 197]", "100 to 1000 nM"),
    ("CCn1cc(Oc2nc(O)c3ccncc3n2)cn1 [Example 62]", "≤ 100 nM"),
    ("Cn1cnc(-c2nccc3c(O)nc(OCC(F)(F)F)nc23)c1 [Example 70]", "≤ 100 nM"),
    ("Oc1nc(Oc2cnn(Cc3ccccc3F)c2)nc2cnccc12 [Example 87]", "≤ 100 nM"),
    ("Oc1nc(Oc2cnn([C@H]3CCCN(Cc4ccccc4)C3)c2)nc2cnccc12 [Example 168]", "≤ 100 nM"),
]

Which IC50 is reported with Jarid1A (Homo sapiens) for this entry: CC(=O)N1CCC[C@@H](n2cc(Oc3nc(O)c4ccncc4n3)cn2)C1 [Example 153] ?
≤ 100 nM

Which IC50 is reported with Jarid1A (Homo sapiens) for this entry: CN(C)CCCOc1nc(O)c2ccncc2n1 [Example 21] ?
100 to 1000 nM

Which IC50 is reported with Jarid1A (Homo sapiens) for this entry: Oc1nc(OCCc2ccc(Cl)cc2)nc2cnccc12 [Example 174] ?
≤ 100 nM

Which IC50 is reported with Jarid1A (Homo sapiens) for this entry: Oc1nc(Oc2ccccc2F)nc2cnccc12 [Example 46] ?
≤ 100 nM

Which IC50 is reported with Jarid1A (Homo sapiens) for this entry: Oc1nc(OCc2ccccc2)nc2cnccc12 [Example 4] ?
100 to 1000 nM

###

Reported IC50 values for the following molecules.
Sequence of the target: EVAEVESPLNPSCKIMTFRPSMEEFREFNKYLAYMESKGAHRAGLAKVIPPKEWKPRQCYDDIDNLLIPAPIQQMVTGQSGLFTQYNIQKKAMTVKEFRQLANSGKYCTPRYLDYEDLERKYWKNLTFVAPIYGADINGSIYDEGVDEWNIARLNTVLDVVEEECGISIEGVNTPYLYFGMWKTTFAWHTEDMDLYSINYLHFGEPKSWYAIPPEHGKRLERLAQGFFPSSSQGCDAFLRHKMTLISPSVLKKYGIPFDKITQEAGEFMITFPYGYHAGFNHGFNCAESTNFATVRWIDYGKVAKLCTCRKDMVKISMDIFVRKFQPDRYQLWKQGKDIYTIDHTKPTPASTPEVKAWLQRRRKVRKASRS

For orientation, consider the following solved cases.
# smiles.string, value
records = [
    ("O=S(=O)(c1ccccc1)N1CC[C@@H](n2cc(Oc3nc(O)c4ccncc4n3)cn2)C1", "≤ 100 nM"),
    ("Oc1nc(Oc2ccnc(N3CCNCC3)c2)nc2cnccc12", "100 to 1000 nM"),
    ("CCOc1c(F)cc(Oc2nc(O)c3ccncc3n2)cc1F", "100 to 1000 nM"),
]

# IC50 lookup, item `CC(C)(O)CCOc1nc(O)c2ccncc2n1`
100 to 1000 nM

# IC50 lookup, item `CC(=O)N1CCC[C@@H](n2cc(Oc3nc(O)c4ccncc4n3)cn2)C1`
≤ 100 nM

###

System: KDM5A/B
experimental.details: In vitro cell-based assay: immuno-blot quantification of tri-methyl H3K4 in ZR-75-1 breast cancer cells
condition.details: 72 hours, tri-methyl H3K4 level relative to GAPDH, percent of DMSO, read-out: Cellular IC50
pIC50: −log10 of the molar value.
readout.type: pIC50

# smiles.string, pIC50
records = [
    ("Oc1nc(OCC(F)(F)F)nc2cnccc12", "< 5.00"),
    ("Oc1nc(Oc2cccc(Cl)c2)nc2cnccc12", "< 5.00"),
    ("CCS(=O)(=O)N1CCC[C@@H](n2cc(Oc3nc(O)c4ccncc4n3)cn2)C1", "6.00 to 7.00"),
]

# pIC50 lookup, item `Oc1nc(Oc2cnn([C@H]3CCN(c4ccccc4F)C3)c2)nc2cnccc12`
5.00 to 6.00

# pIC50 lookup, item `Oc1nc(Oc2cccc(C(F)(F)F)c2)nc2cnccc12`
5.00 to 6.00

# pIC50 lookup, item `CCS(=O)(=O)N1CC[C@H](n2cc(Oc3nc(O)c4ccncc4n3)cn2)C1`
6.00 to 7.00

# pIC50 lookup, item `Oc1nc(Oc2cccc(F)c2)nc2cnccc12`
< 5.00

# pIC50 lookup, item `Oc1nc(Oc2cnn([C@@H]3CCN(c4ccc(F)cc4)C3)c2)nc2cnccc12`
6.00 to 7.00

# pIC50 lookup, item `Oc1nc(Oc2cnn([C@H]3CCN(c4ccc(Cl)cc4)C3)c2)nc2cnccc12`
5.00 to 6.00

# pIC50 lookup, item `Oc1nc(OCC2CCC2)nc2cnccc12`
< 5.00
